Item-by-item account of log10(IC20)
- System: transglutaminase (TGase I)
- test.name: Transglutaminase (Tgase) ELISA assay in cultured keratinocytes with retinol and boosters
- Type: cell-based, human
- conditions.used: IC20 (80% of control), compound tested individually in the presence of 10^-7 M retinol
# values: log10(IC20), units µM

compound	target.desc	measured.number
COc1cc(NS(C)(=O)=O)ccc1Nc1c2ccccc2nc2ccccc12 [Amsacrine, reference compound]	transglutaminase (TGase I)	0.52
CCCCCCCCCCCC1=NCCN1CCO [Lauryl Hydroxyethylimidazoline]	transglutaminase (TGase I)	-0.57
CC(=O)N1CCN(c2ccc(OCC3COC(Cn4ccnc4)(c4ccc(Cl)cc4Cl)O3)cc2)CC1 (centres unmarked) [Ketoconazole, reference compound]	transglutaminase (TGase I)	-1.26
CC(C)=CCCC(C)=CCCC(C)=CCO [Farnesol]	transglutaminase (TGase I)	1.89

Prompt: Which log10(IC20) value belongs to COc1cc(C=O)ccc1O [Vanillin] ?
Completion: 3.93

Prompt: Which log10(IC20) value belongs to CC(C)=CCC/C(C)=C/CO [Geraniol] ?
Completion: 3.67

Prompt: Which log10(IC20) value belongs to CCCCCCCCCCCCCC(=O)O [Myristic Acid] ?
Completion: 1.02

Prompt: Which log10(IC20) value belongs to CC1(C)[C@@H](O)CC[C@]2(C)[C@H]3C(=O)C=C4[C@@H]5C[C@@](C)(C(=O)O)CC[C@]5(C)CC[C@@]4(C)[C@]3(C)CC[C@@H]12 [Glycyrretinic Acid, Glycyrrhetinic Acid] ?
Completion: 0.78
